System: S. enterica typhimurium tolC KO;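 note: active when median AUC fell below 0.1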
ASSAY METHOD TEXT: growth AUC normalised to DMSO control (median) (fraction of control); higher = less growth inhibition, active = hit call of the paper
PARTICULARS: 20 µM
Counter-ions that a name gives are not always drawn.
MEASUREMENT LABEL: growth AUC normalised to DMSO control

* COCCCC/C(=N\OCCN)c1ccc(C(F)(F)F)cc1 [Fluvoxamine maleate] | 0.957
* CC(=O)OCC(=O)[C@@]1(O)[C@H](C)C[C@H]2[C@@H]3CCC4=CC(=O)C=C[C@]4(C)[C@@]3(F)[C@@H](O)C[C@@]21C [Dexamethasone acetate] | 0.998
* CCOC(=O)/C=C(C)/C=C/C=C(C)/C=C/c1c(C)cc(OC)c(C)c1C [Etretinate] | 0.991
* Clc1ccc(CSC(Cn2ccnc2)c2ccc(Cl)cc2Cl)cc1 (centres undefined) [Sulconazole nitrate] | 0.911
